# Measured target: IAPP fibrils (Homo sapiens)
# Construct: purchased Bachem Inc
# Sequence (P10997 34-70 limits assumed): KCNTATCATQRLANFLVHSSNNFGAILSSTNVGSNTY
# Test name: Congo red binding assay with IAPP fibrils
# Type: biochemical
# Study conditions: IAPP:test compound wt/wt ratio 1:0.001; 3-day incubation
Measured endpoint: % Inhibition IAPP (result ± S.D.), Congo red binding (%)

> print(dat)
                                   compound  readout.value
1  Cc1nc(-c2ccc(O)c(O)c2)cc(-c2ccc(O)c(O)c2)c1C#N            0.0
2  O=C(CCC(=O)NCc1ccc(O)c(O)c1)NCc1ccc(O)c(O)c1            0.0
3       O=C(NCc1ccc(O)c(O)c1)c1ccc(O)c(O)c1           10.2
4  Oc1ccc(CCc2ccc(O)c(O)c2)cc1O [Compound 4, 1,2-bis(3,4-dihydroxyphenyl)ethane]            0.0
5    O=C(C=Cc1ccc(O)c(O)c1)NCc1ccc(O)c(O)c1            0.0
6  Oc1ccc(CN[C@@H]2CCCC[C@H]2NCc2ccc(O)c(O)c2)cc1O (relative stereo)            0.0
7  O=C(NCc1ccc(O)c(O)c1)C(=Cc1ccc(O)c(O)c1)NC(=O)c1ccc(O)c(O)c1            0.0
8  Oc1ccc(Cc2ccc(O)c(O)c2)cc1O [Compound 3, 3,4,3′,4′-tetrahydroxydiphenylmethane]           11.1

---

# Measured target: Aβ 1-42 fibrils (Homo sapiens, UniProt P05067)
# Construct: purchased Bachem Inc
# Sequence (P05067 672-713): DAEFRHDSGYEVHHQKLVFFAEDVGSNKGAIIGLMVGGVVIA
# Test name: Congo red binding assay with Aβ 1-42 fibrils
# Type: biochemical
# Study conditions: Aβ:test compound wt/wt ratio 1:0.1; 3-day incubation
Measured endpoint: % Inhibition Aβ (result ± S.D.), Congo red binding (%)

Molecule	Unit label	Readout value
Oc1ccc(Cc2ccc(O)c(O)c2)cc1O [Compound 3, 3,4,3′,4′-tetrahydroxydiphenylmethane]	%	35.7
O=C(O)CN(CCN(CC(=O)O)CC(=O)O)CC(=O)O [EDTA, reference compound]	%	3.6
Oc1ccc(CCc2ccc(O)c(O)c2)cc1O [Compound 4, 1,2-bis(3,4-dihydroxyphenyl)ethane]	%	46.8
CN1C2CCC1C(Cc1ccc(O)c(O)c1)C(=O)C2Cc1ccc(O)c(O)c1 (stereo not shown) [Compound 19, 2,4-bis(3,4-dihydroxybenzyl)-3-tropinone]	%	22.4

---

Below: a set of entries, each annotated with reported inhibition.
# Measured target: NAC fibrils (Homo sapiens, UniProt P37840)
# Construct: NAC is a 35-amino acid fragment of α-synuclein; purchased Bachem Inc
# Test name: Thioflavin T fluorometry - disruption of Parkinson's disease NAC fibrils
# Format: biochemical
# Study conditions: NAC:test compound wt/wt ratio 1:0.01; 25 μM pre-fibrillized NAC, 37° C., 3 days; read-out: % Inhibition NAC (result ± S.D.)
# Description: In this assay, Thioflavin T binds specifically to NAC fibrils, and this binding produces a fluorescence enhancement at 485 nm that is directly proportional to the amount of NAC fibrils present. The higher the fluorescence, the greater the amount of NAC fibrils present (Naki et al, Lab. Invest. 65:104-110, 1991; Levine III, Protein Sci. 2:404-410, 1993; Amyloid: Int. J. Exp. Clin. Invest. 2:1-6, 1995). […]
Measured endpoint: inhibition (%)

> print(dat)
                                   compound  unit.label  readout.value
1  O=C(CCC(=O)Nc1ccc(O)c(O)c1)Nc1ccc(O)c(O)c1 [Compound 66, succinic acid bis(3,4-dihydroxyanilide)]           %           43.4
2  O=C(c1ccc(O)c(O)c1)C(O)c1ccc(O)c(O)c1 (stereo not shown) [Compound 1, 3,4,3′,4′-tetrahydroxybenzoin]           %           68.2
3       O=C(NCc1ccc(O)c(O)c1)c1ccc(O)c(O)c1           %           79.6
4  O=C(N[C@@H]1CCCC[C@H]1NC(=O)c1ccc(O)c(O)c1)c1ccc(O)c(O)c1 (relative stereo)           %           56.8

---

# Measured target: Aβ 1-42 fibrils (Homo sapiens, UniProt P05067)
# Construct: purchased Bachem Inc
# Test name: Thioflavin T fluorometry - disruption of pre-formed Aβ 1-42 Alzheimer's fibrils
# Assay type: biochemical
# Study conditions: Aβ:test compound wt/wt ratio 1:0.001; 25 μM pre-fibrillized Aβ 1-42, 37° C., 3 days; read-out: % Inhibition Aβ (result ± S.D.)
# Text: In one study, Thioflavin T fluorometry was used to determine the effects of the compounds, and of EDTA (as a negative control). In this assay Thioflavin T binds specifically to fibrillar amyloid, and this binding produces a fluorescence enhancement at 485 nm that is directly proportional to the amount of amyloid fibrils formed. […]
Measured endpoint: inhibition (%)

> print(dat)
                                   compound                           measured.target  measured.endpoint  unit.label  readout.value
1     O=C(NCCc1ccc(O)c(O)c1)Nc1ccc(O)c(O)c1  Aβ 1-42 fibrils (Homo sapiens, UniProt P05067)         inhibition           %           22.4
2  Oc1ccc(CCc2ccc(O)c(O)c2)cc1O [Compound 4, 1,2-bis(3,4-dihydroxyphenyl)ethane]  Aβ 1-42 fibrils (Homo sapiens, UniProt P05067)         inhibition           %           26.8
3  O=C(CCC(=O)Nc1ccc(O)c(O)c1)Nc1ccc(O)c(O)c1 [Compound 66, succinic acid bis(3,4-dihydroxyanilide)]  Aβ 1-42 fibrils (Homo sapiens, UniProt P05067)         inhibition           %           27.1
4     O=C(CCc1ccc(O)c(O)c1)NCc1ccc(O)c(O)c1  Aβ 1-42 fibrils (Homo sapiens, UniProt P05067)         inhibition           %           20.5

---

Below, each entry is listed alongside its reported % Inhibition IAPP (result ± S.D.), Congo red binding.
# Measured target: IAPP fibrils (Homo sapiens)
# Construct: purchased Bachem Inc
# Test name: Congo red binding assay with IAPP fibrils
# Format: biochemical
# Study conditions: IAPP:test compound wt/wt ratio 1:0.1; 3-day incubation
Measured endpoint: % Inhibition IAPP (result ± S.D.), Congo red binding (%)

Molecule	Readout value
CN1C2CCC1C(Cc1ccc(O)c(O)c1)C(=O)C2Cc1ccc(O)c(O)c1 (centres unmarked) [Compound 19, 2,4-bis(3,4-dihydroxybenzyl)-3-tropinone]	21.0
O=C(Nc1ccc(O)c(O)c1)Nc1ccc(O)c(O)c1 [Compound 76, 1,3-bis(3,4-dihydroxyphenyl)urea]	16.5
O=C(N[C@@H]1CCCC[C@H]1NC(=O)c1ccc(O)c(O)c1)c1ccc(O)c(O)c1 (relative stereo)	7.5
Cc1nc(-c2ccc(O)c(O)c2)cc(-c2ccc(O)c(O)c2)c1C#N	0.0
O=C(NCCc1ccc(O)c(O)c1)Nc1ccc(O)c(O)c1	16.7

---

Reported inhibition values for a set of molecules
# Measured target: IAPP fibrils (Homo sapiens, UniProt P10997)
# Construct: purchased Bachem Inc
# Test name: Thioflavin T fluorometry - disruption of type 2 diabetes IAPP fibrils
# Assay type: biochemical
# Study conditions: IAPP:test compound wt/wt ratio 1:1; 25 μM pre-fibrillized IAPP, 37° C., 3 days; read-out: % Inhibition IAPP (result ± S.D.)
# From the text: In this assay Thioflavin T binds specifically to fibrillar amyloid, and this binding produces a fluorescence enhancement at 485 nm that is directly proportional to the amount of IAPP fibrils present. The higher the fluorescence, the greater the amount of IAPP fibrils present (Naki et al, Lab. Invest. 65:104-110, 1991; Levine III, Protein Sci. 2:404-410, 1993; Amyloid: Int. J. Exp. Clin. Invest. 2:1-6, 1995). […]
Measured endpoint: inhibition (%)

> print(dat)
                                   molecule  readout.value
1  O=C(c1ccc(O)c(O)c1)N1CCN(C(=O)c2ccc(O)c(O)c2)CC1 [Compound 23, 1,4-bis(3,4-dihydroxybenzoyl)piperazine]           85.2
2  O=C(N[C@@H]1CCCC[C@H]1NC(=O)c1ccc(O)c(O)c1)c1ccc(O)c(O)c1 (relative stereo) [Compound 26]           52.5
3  O=C(CCc1ccc(O)c(O)c1)NCc1ccc(O)c(O)c1 [Compound 58]           98.1
4  O=C(NCc1ccc(O)c(O)c1)c1ccc(O)c(O)c1 [Compound 52]           97.9
5  O=C(CCC(=O)NCc1ccc(O)c(O)c1)NCc1ccc(O)c(O)c1 [Compound 67]           98.6
6  Oc1ccc(CN[C@@H]2CCCC[C@H]2NCc2ccc(O)c(O)c2)cc1O (relative stereo) [Compound 12]           99.9
7  O=C(C=Cc1ccc(O)c(O)c1)NCc1ccc(O)c(O)c1 [Compound 61]           96.8
8  Cc1nc(-c2ccc(O)c(O)c2)cc(-c2ccc(O)c(O)c2)c1C#N [Compound 8]           72.8
